system: 454973-116-R2-J3-PDC complex spheroid viability; experiment: Anticancer human tumor 454973-116-R2-J3-PDC patient-derived pancreatic carcinoma cell line growth inhibition [POLQ]; details: second compound 0.0316 µM; first compound 1 µM; hits give low values;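 also: spheroids exposed to drugs for seven days before measurement; percent viability relative to DMSO vehicle control wells taken as 100%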

COMPOUND	viability, T/C, %
O=C(c1cc(Cc2n[nH]c(=O)c3ccccc23)ccc1F)N1CCN(C(=O)C2CC2)CC1 + Cc1cccc(N(C)C(=O)C2C(O)CCN2c2nc(C)cc(C(F)(F)F)c2C#N)c1	103
COc1ccc([C@@H](O)c2cc(-c3ncnc4cc(N5CCOCC5)ccc34)c(F)cc2Cl)nn1 + Nc1ccc(C#CCN(C(=O)Cc2ncc(C(F)(F)F)cc2C(F)(F)F)c2ccc(F)cc2)nn1	86.9
C=CCn1c(=O)c2cnc(Nc3ccc(N4CCN(C)CC4)cc3)nc2n1-c1cccc(C(C)(C)O)n1 + COC1C(OC(N)=O)C(O)C(Oc2ccc3c(O)c(NC(=O)c4ccc(O)c(CC=C(C)C)c4)c(=O)oc3c2C)OC1(C)C	16.6
CCc1c2c(nc3ccc(O)cc13)-c1cc3c(c(=O)n1C2)COC(=O)[C@]3(O)CC + Cc1cccc(N(C)C(=O)C2C(O)CCN2c2nc(C)cc(C(F)(F)F)c2C#N)c1	1.69
O=c1[nH]cc(F)c(=O)[nH]1 + COC1C(OC(N)=O)C(O)C(Oc2ccc3c(O)c(NC(=O)c4ccc(O)c(CC=C(C)C)c4)c(=O)oc3c2C)OC1(C)C	100
CCc1c2c(nc3ccc(O)cc13)-c1cc3c(c(=O)n1C2)COC(=O)[C@]3(O)CC + COC1C(OC(N)=O)C(O)C(Oc2ccc3c(O)c(NC(=O)c4ccc(O)c(CC=C(C)C)c4)c(=O)oc3c2C)OC1(C)C	0.92
